The reported numbers originate from the Human Domainome abundance scans (Beltran et al. 2025).

B1: Dystrobrevin alpha, residues 235 to 294; numbered along this chain, Q9Y4J8 (parent)
chain: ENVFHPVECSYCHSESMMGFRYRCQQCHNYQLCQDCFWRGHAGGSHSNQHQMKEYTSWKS

Variants of: B1
Assay: abundance fitness (aPCA) (normalised: wild type 0, dead -1); higher = more abundant; growth selection in yeast, the domain comes from the species named
Conditions: Homo sapiens

Chain Sequence: ENVFHPVECSYCHSESMMGFRYRCQQCHNYQLCQDCFIRGHAGGSHSNQHQMKEYTSWKS [W38I]
abundance fitness: 0.318
--
Chain Sequence: ENVFHPVECSYCHSESMMGFRQRCQQCHNYQLCQDCFWRGHAGGSHSNQHQMKEYTSWKS [Y22Q]
abundance fitness: -0.754
--
Chain Sequence: ENVFHPVRCSYCHSESMMGFRYRCQQCHNYQLCQDCFWRGHAGGSHSNQHQMKEYTSWKS [E8R]
abundance fitness: -0.222
--
Chain Sequence: ENVFHPVECSYCHSESMMGFRYRCQQCHNYQLCQDCFWRGHAGGRHSNQHQMKEYTSWKS [S45R]
abundance fitness: -0.159
--
Chain Sequence: ENVFHPVECSYCFSESMMGFRYRCQQCHNYQLCQDCFWRGHAGGSHSNQHQMKEYTSWKS [H13F]
abundance fitness: -0.243
